Could you please report measured MIC for the items listed next?
- Tested on: HUVEC
- measurementDescription: Antiangiogenic activity in HUVEC assessed as inhibition of cell migration after 16 to 20 hrs by wound healing migration assay
- Format: functional
- measurementParameters: Homo sapiens
Put your answer as a value accompanied by its unit after it.

{"compound": "COc1cc([C@@H]2Oc3cc([C@H]4Oc5cc(OC(=O)c6cc(O)c(O)c(O)c6)cc(O)c5C(=O)[C@@H]4O)ccc3O[C@H]2CO)ccc1O", "measuredAttribute": "MIC", "result": "10 µM"}
{"compound": "COc1cc(C2Oc3cc([C@H]4Oc5cc(OC(=O)c6cc(O)c(O)c(O)c6)cc(O)c5C(=O)[C@@H]4O)ccc3OC2CO)ccc1O (some centres not stated)", "measuredAttribute": "MIC", "result": "10 µM"}
{"compound": "COc1cc(C2Oc3cc([C@H]4Oc5cc(O)cc(O)c5C(=O)[C@@H]4OC(=O)c4cc(O)c(O)c(O)c4)ccc3OC2CO)ccc1O (some centres not stated)", "measuredAttribute": "MIC", "result": "50 µM"}
{"compound": "COc1cc([C@H]2Oc3cc([C@H]4Oc5cc(OC(=O)c6cc(O)c(O)c(O)c6)cc(O)c5C(=O)[C@@H]4O)ccc3O[C@@H]2CO)ccc1O", "measuredAttribute": "MIC", "result": "10 µM"}
{"compound": "COc1cc(C2Oc3cc([C@H]4Oc5cc(O)cc(O)c5C(=O)[C@@H]4O)ccc3OC2CO)ccc1OC(=O)c1cc(O)c(O)c(O)c1 (some centres not stated)", "measuredAttribute": "MIC", "result": "20 µM"}

List the reported MIC of each compound below.
1. COc1cc(C2Oc3cc([C@H]4Oc5cc(O)cc(O)c5C(=O)[C@@H]4O)ccc3OC2COC(=O)c2cc(O)c(O)c(O)c2)ccc1O (some centres not stated)
2. COc1cc(C2Oc3cc([C@H]4Oc5cc(O)cc(O)c5C(=O)[C@@H]4O)ccc3OC2CO)ccc1O (mixture of isomers)

Response:
1. 20 µM
2. 50 µM

* * *

- Tested on: HUVEC
- measurementDescription: Antiproliferative activity against HUVEC assessed as inhibition of cell growth after 3 days by MTT assay
- Type: functional, cell-based
- measurementParameters: Homo sapiens, 72 h
measuredAttribute: pIC50
Give bare numbers, as −log10 of the molar value.

{"compound": "COc1cc(C2Oc3cc([C@H]4Oc5cc(O)cc(O)c5C(=O)[C@@H]4O)ccc3OC2CO)ccc1OC(=O)c1cc(O)c(O)c(O)c1 (some centres undefined)", "pIC50": 4.99}
{"compound": "COc1cc([C@H]2Oc3cc([C@H]4Oc5cc(OC(=O)c6cc(O)c(O)c(O)c6)cc(O)c5C(=O)[C@@H]4O)ccc3O[C@@H]2CO)ccc1O", "pIC50": 5.22}
{"compound": "COc1cc([C@@H]2Oc3cc([C@H]4Oc5cc(O)cc(O)c5C(=O)[C@@H]4O)ccc3O[C@H]2CO)ccc1O", "pIC50": 5.19}
{"compound": "COc1cc([C@H]2Oc3cc([C@H]4Oc5cc(O)cc(O)c5C(=O)[C@@H]4O)ccc3O[C@@H]2CO)ccc1O", "pIC50": 5.05}
{"compound": "COc1cc(C2Oc3cc([C@H]4Oc5cc(O)cc(O)c5C(=O)[C@@H]4O)ccc3OC2COC(=O)c2cc(O)c(O)c(O)c2)ccc1O (some centres undefined)", "pIC50": 4.94}
{"compound": "COc1cc(C2Oc3cc([C@H]4Oc5cc(O)cc(O)c5C(=O)[C@@H]4O)ccc3OC2CO)ccc1O (mixture of isomers)", "pIC50": 5.00}
{"compound": "COc1cc([C@@H]2Oc3cc([C@H]4Oc5cc(OC(=O)c6cc(O)c(O)c(O)c6)cc(O)c5C(=O)[C@@H]4O)ccc3O[C@H]2CO)ccc1O", "pIC50": 5.37}
{"compound": "COc1cc(C2Oc3cc([C@H]4Oc5cc(O)cc(O)c5C(=O)[C@@H]4OC(=O)c4cc(O)c(O)c(O)c4)ccc3OC2CO)ccc1O (some centres undefined)", "pIC50": 4.91}

Now look at this one.
Query: Entry COc1cc(C2Oc3cc([C@H]4Oc5cc(OC(=O)c6cc(O)c(O)c(O)c6)cc(O)c5C(=O)[C@@H]4O)ccc3OC2CO)ccc1O (some centres undefined) : reported pIC50 = ?
Response: 5.32

Hello, the source for this data is ChEMBL document CHEMBL1833883, in case you need it.
